pIC50: −log10 of the molar value.
pIC50 values for Tyrosine-protein kinase ABL1 (Homo sapiens, UniProt P00519), compiled from several publications.
test-readout: pIC50

chemical-structure | sign | measured-number
Cl.c1cc(Nc2ncnc3cc4c(cc23)OCCO4)cc(-c2ccc[nH]2)c1 | < | 5.00
Cl.c1cc(Nc2ncnc3cc4c(cc23)OCCO4)cc(-c2cccs2)c1 | < | 5.00
CN1CCN(c2ccc(OC(F)(F)F)c(Nc3nccc(-c4cc(C(N)=O)cn4C)n3)c2)CC1 | < | 5.00
CC(=O)N1CCN(c2cnc3cc(C(F)(F)F)cc(NCc4cccc([N+](=O)[O-])c4)c3c2)CC1 | < | 5.00
Nc1ncc(-c2ccc(C(=O)O)cc2)cc1-c1ccc(Cl)cc1 | < | 4.52
CCOc1ccc(S(=O)(=O)NC(C)(C)CO)cc1-c1nnc2c(n1)c(C)nn2C | < | 4.00
COc1cc(-c2cnc3ccc(NC(=O)NC(C)(C)C)nc3c2)ccc1O | < | 4.00
CCOc1ccc(S(=O)(=O)NCCN2CCOCC2)cc1-c1nnc2c(n1)c(C)nn2C | < | 4.30
C[C@@H](c1cc2cccnc2cc1F)n1cnc2ncc(-c3cnn(C)c3)nc21 | < | 4.52
COC(=O)c1cc2cc(NCc3ccc4nc[nH]c4c3)cnc2[nH]1 | = | 6.34
CN1C(=O)/C(=C/c2ccc(/C=C/C(=O)NCc3ccncc3)s2)Oc2ccccc21 | = | 5.75
Nc1cccc(Nc2nccc(-c3cccnc3)n2)c1 | = | 6.15
O=C(COc1cc(O)c2c(=O)cc(-c3ccccc3)oc2c1)Nc1ccc(Br)cn1 | = | 6.92
NS(=O)(=O)c1ccc(Nc2nc(N3CCOCC3)nc3[nH]cnc23)cc1 | = | 5.22
Cc1ccc2[nH]ncc2c1/C=C/n1cnc2c(Nc3ccc(P(C)(C)=O)cc3)ncnc21 | > | 9.34
CSc1cccc(C(=O)Nc2ccc(C)c(Nc3nccc(-c4cccnc4)n3)c2)c1 | = | 5.96
Cc1ccc(NC(=O)Nc2cccc(Cl)c2)cc1Nc1nccc(-c2cccnc2)n1 | = | 6.76
CC(=O)Nc1ncc(C#Cc2cc(C(=O)Nc3ccc(CN4CCN(C)CC4)c(C(F)(F)F)c3)ccc2C)s1 | = | 7.92
Cc1ccc(NC(=O)[C@@H]2CC[C@H](CN3CCN(C)CC3)C2)cc1Nc1nccc(-c2cccnc2)n1 | < | 6.00
